FYI, the data here is from patent US10407430B2.

- target.desc: Human JAK2 (Homo sapiens)
- Construct: purchased Millipore, Germany
- Sequence (O60674 whole entry): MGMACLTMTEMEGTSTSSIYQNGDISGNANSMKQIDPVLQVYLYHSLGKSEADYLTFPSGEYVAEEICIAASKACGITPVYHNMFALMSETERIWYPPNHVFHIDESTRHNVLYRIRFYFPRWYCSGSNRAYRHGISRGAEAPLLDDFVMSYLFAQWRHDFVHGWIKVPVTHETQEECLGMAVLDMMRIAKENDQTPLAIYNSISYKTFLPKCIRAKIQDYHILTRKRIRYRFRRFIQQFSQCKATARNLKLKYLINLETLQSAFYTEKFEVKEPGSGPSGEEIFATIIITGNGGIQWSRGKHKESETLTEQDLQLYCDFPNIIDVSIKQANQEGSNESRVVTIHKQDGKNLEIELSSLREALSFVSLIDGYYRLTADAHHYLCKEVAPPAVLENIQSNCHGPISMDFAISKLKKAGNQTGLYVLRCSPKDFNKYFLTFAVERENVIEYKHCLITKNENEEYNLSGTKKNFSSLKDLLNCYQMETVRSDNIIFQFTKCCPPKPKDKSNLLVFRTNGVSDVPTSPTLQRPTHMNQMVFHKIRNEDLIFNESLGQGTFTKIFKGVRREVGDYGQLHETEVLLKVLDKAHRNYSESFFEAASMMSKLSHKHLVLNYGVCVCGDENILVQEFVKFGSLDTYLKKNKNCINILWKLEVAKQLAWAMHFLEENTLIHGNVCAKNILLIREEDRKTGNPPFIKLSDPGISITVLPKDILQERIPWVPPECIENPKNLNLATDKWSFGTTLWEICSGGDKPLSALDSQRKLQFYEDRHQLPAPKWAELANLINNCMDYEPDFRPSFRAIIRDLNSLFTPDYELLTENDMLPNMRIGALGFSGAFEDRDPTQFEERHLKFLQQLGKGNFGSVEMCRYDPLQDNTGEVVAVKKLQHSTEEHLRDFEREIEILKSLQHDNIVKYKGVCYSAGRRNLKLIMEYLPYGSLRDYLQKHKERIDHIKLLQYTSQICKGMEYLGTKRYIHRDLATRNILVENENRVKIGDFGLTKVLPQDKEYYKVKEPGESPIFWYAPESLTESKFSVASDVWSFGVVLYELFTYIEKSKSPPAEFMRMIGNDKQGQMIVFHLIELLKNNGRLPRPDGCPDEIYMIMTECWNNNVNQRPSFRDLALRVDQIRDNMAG
- test.summary: In-vitro kinase inhibition test, JAK2
- Format: biochemical
- measurement.parameters: compound at 1 uM; read-out: JAK2 kinase-phosphorylation inhibitory level (% inhibition)
measurement.kind: inhibition at 1 µM (%)

[
  {
    "given.smiles": "CN(c1ncnc2[nH]ccc12)[C@@H]1CCN(S(=O)(=O)c2ccccc2C#N)C1",
    "recorded.number": 73
  },
  {
    "given.smiles": "N#CCC(=O)N1C[C@@H]2CCCN(c3ncnc4[nH]ccc34)[C@@H]2C1",
    "recorded.number": -10
  },
  {
    "given.smiles": "N#Cc1cccc(S(=O)(=O)N2CC[C@@H](N(CC3CC3)c3ncnc4[nH]ccc34)C2)c1",
    "recorded.number": 40
  },
  {
    "given.smiles": "CN(c1ncnc2[nH]ccc12)[C@@H]1CCN(S(=O)(=O)C(F)(F)F)C1",
    "recorded.number": 9
  },
  {
    "given.smiles": "CN(c1ncnc2[nH]ccc12)[C@@H]1CCN(S(C)(=O)=O)C1",
    "recorded.number": 7
  },
  {
    "given.smiles": "CC(C)S(=O)(=O)N1CC[C@@H](N(C)c2ncnc3[nH]ccc23)C1",
    "recorded.number": 11
  },
  {
    "given.smiles": "CN(c1ncnc2[nH]ccc12)[C@@H]1CCN(S(=O)(=O)c2cccc([N+](=O)[O-])c2)C1",
    "recorded.number": 97
  },
  {
    "given.smiles": "CN(c1ncnc2[nH]ccc12)[C@@H]1CCN(CCC#N)C1",
    "recorded.number": 42
  },
  {
    "given.smiles": "N#Cc1cccc(S(=O)(=O)N2CC[C@@H](Nc3ncnc4[nH]ccc34)C2)c1",
    "recorded.number": 29
  },
  {
    "given.smiles": "CN(c1ncnc2[nH]ccc12)[C@@H]1CCN(S(=O)(=O)c2cccc(F)c2)C1",
    "recorded.number": 93
  },
  {
    "given.smiles": "CN(c1ncnc2[nH]ccc12)[C@@H]1CCN(S(=O)(=O)c2ccc(F)cc2)C1",
    "recorded.number": 81
  },
  {
    "given.smiles": "CN(c1ncnc2[nH]ccc12)[C@H]1CN(C(=O)CC#N)CC1(C)C",
    "recorded.number": 19
  },
  {
    "given.smiles": "CCN(c1ncnc2[nH]ccc12)[C@@H]1CCN(C(=O)CC#N)C1",
    "recorded.number": 91
  },
  {
    "given.smiles": "CCCS(=O)(=O)N1CC[C@@H](N(C)c2ncnc3[nH]ccc23)C1",
    "recorded.number": 62
  },
  {
    "given.smiles": "CN(c1ncnc2[nH]ccc12)[C@@H]1CCN(S(=O)(=O)c2ccccc2F)C1",
    "recorded.number": 66
  },
  {
    "given.smiles": "Cc1ccc(S(=O)(=O)N2CC[C@@H](N(C)c3ncnc4[nH]ccc34)C2)cc1",
    "recorded.number": 42
  },
  {
    "given.smiles": "CCN(c1ncnc2[nH]ccc12)[C@@H]1CCN(S(=O)(=O)c2cccc(C#N)c2)C1",
    "recorded.number": 86
  }
]

----------
- target.desc: Human TYK2 (Homo sapiens)
- Construct: purchased Millipore, Germany
- test.summary: In-vitro kinase inhibition test, TYK2
- Type: biochemical
- measurement.parameters: compound at 1 uM; read-out: TYK2 kinase-phosphorylation inhibitory level (% inhibition)
Outcome label depends on inhibition at 1 µM relative to 40%: at/above gives MET, below gives NOT MET.

[
  {
    "given.smiles": "CN(c1ncnc2[nH]ccc12)[C@@H]1CCN(S(=O)(=O)c2ccc(F)cc2)C1",
    "classification": "MET"
  },
  {
    "given.smiles": "CN(c1ncnc2[nH]ccc12)[C@@H]1CCN(S(=O)(=O)c2cn(C)cn2)C1",
    "classification": "NOT MET"
  },
  {
    "given.smiles": "CN(c1ncnc2[nH]ccc12)[C@@H]1CCN(S(=O)(=O)C(F)(F)F)C1",
    "classification": "MET"
  },
  {
    "given.smiles": "CN(c1ncnc2[nH]ccc12)[C@H]1CN(C(=O)CC#N)CC1(C)C",
    "classification": "NOT MET"
  },
  {
    "given.smiles": "CN(c1ncnc2[nH]ccc12)[C@@H]1CCCN(C(=O)CC#N)C1",
    "classification": "MET"
  },
  {
    "given.smiles": "CCCCN1CC[C@@H](N(C)c2ncnc3[nH]ccc23)C1",
    "classification": "NOT MET"
  },
  {
    "given.smiles": "CN(c1ncnc2[nH]ccc12)[C@@H]1CCN(S(=O)(=O)c2ccc([N+](=O)[O-])cc2)C1",
    "classification": "MET"
  },
  {
    "given.smiles": "CN(c1ncnc2[nH]ccc12)[C@@H]1CCN(S(=O)(=O)c2cccc(F)c2)C1",
    "classification": "MET"
  }
]

----------
- target.desc: Human TYK2 (Homo sapiens, UniProt P29597)
- Construct: purchased Millipore, Germany
- Sequence (P29597 whole entry): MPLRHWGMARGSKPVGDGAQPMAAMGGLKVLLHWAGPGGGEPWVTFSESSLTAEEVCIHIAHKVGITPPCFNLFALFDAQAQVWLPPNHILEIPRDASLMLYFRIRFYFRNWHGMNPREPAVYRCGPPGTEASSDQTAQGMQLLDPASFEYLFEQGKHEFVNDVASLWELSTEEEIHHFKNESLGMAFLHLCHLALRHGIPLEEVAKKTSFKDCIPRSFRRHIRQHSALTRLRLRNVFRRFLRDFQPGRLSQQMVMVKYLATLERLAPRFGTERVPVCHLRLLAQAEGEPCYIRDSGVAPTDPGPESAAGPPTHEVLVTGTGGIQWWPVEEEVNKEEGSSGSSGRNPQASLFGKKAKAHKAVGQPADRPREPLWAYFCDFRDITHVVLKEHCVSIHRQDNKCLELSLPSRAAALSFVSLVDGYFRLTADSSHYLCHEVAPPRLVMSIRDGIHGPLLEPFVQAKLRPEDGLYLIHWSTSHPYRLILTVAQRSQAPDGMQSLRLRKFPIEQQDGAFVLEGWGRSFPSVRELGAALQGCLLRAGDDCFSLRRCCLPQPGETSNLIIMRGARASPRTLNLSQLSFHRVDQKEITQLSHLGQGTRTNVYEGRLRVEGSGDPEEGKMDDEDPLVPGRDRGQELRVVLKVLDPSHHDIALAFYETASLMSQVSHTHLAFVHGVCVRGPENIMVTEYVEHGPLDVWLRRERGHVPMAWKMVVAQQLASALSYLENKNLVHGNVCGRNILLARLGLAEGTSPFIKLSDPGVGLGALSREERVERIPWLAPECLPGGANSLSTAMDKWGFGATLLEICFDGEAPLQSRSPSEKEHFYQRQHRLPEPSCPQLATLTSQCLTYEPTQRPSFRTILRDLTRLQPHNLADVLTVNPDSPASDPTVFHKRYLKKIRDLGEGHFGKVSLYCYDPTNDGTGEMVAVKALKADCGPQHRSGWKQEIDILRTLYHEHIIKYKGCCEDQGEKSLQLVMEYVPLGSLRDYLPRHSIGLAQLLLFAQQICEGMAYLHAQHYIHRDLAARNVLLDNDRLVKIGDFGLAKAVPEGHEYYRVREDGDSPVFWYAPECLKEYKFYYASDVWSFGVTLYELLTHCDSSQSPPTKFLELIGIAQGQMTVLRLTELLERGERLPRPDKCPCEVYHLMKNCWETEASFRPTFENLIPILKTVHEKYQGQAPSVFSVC
- test.summary: In-vitro kinase inhibition test, TYK2
- Format: biochemical
- measurement.parameters: compound at 1 uM; read-out: TYK2 kinase-phosphorylation inhibitory level (% inhibition)
Outcome label depends on inhibition at 1 µM relative to 60%: at/above gives Condition met, below gives Condition not met.

[
  {
    "molecule": "N#Cc1cccc(S(=O)(=O)N2CC[C@@H](N(CC3CC3)c3ncnc4[nH]ccc34)C2)c1",
    "classification": "Condition not met"
  },
  {
    "molecule": "CN(c1ncnc2[nH]ccc12)[C@@H]1CCN(CCC#N)C1",
    "classification": "Condition not met"
  },
  {
    "molecule": "N#CCC(=O)N1CCC(Oc2ncnc3[nH]ccc23)CC1",
    "classification": "Condition not met"
  },
  {
    "molecule": "COc1ccc(S(=O)(=O)N2CC[C@@H](N(C)c3ncnc4[nH]ccc34)C2)cc1",
    "classification": "Condition met"
  },
  {
    "molecule": "N#CCC(=O)N1C[C@@H]2CCCN(c3ncnc4[nH]ccc34)[C@@H]2C1",
    "classification": "Condition not met"
  },
  {
    "molecule": "CN(c1ncnc2[nH]ccc12)[C@@H]1CCN(S(=O)(=O)c2ccc3ccccc3c2)C1",
    "classification": "Condition met"
  },
  {
    "molecule": "CN(c1ncnc2[nH]ccc12)C1CCN(S(=O)(=O)c2cccc(C#N)c2)CC1",
    "classification": "Condition met"
  },
  {
    "molecule": "CC(C)S(=O)(=O)N1CC[C@@H](N(C)c2ncnc3[nH]ccc23)C1",
    "classification": "Condition not met"
  },
  {
    "molecule": "CN(c1ncnc2[nH]ccc12)[C@@H]1CCCN(S(=O)(=O)c2cccc(C#N)c2)C1",
    "classification": "Condition met"
  },
  {
    "molecule": "Cc1cccc(S(=O)(=O)N2CC[C@@H](N(C)c3ncnc4[nH]ccc34)C2)c1",
    "classification": "Condition met"
  },
  {
    "molecule": "CCN(c1ncnc2[nH]ccc12)[C@@H]1CCN(C(=O)CC#N)C1",
    "classification": "Condition met"
  },
  {
    "molecule": "N#CCC(=O)N1CCCC(COc2ncnc3[nH]ccc23)C1 (stereo not shown)",
    "classification": "Condition not met"
  },
  {
    "molecule": "CN(c1ncnc2[nH]ccc12)[C@@H]1CN(C(=O)CC#N)CC1(C)C",
    "classification": "Condition not met"
  },
  {
    "molecule": "N#CCC(=O)N1CC[C@@H](N(CC2CC2)c2ncnc3[nH]ccc23)C1",
    "classification": "Condition not met"
  },
  {
    "molecule": "CN(c1ncnc2[nH]ccc12)[C@@H]1CCN(C(=O)CN=[N+]=[N-])C1",
    "classification": "Condition met"
  },
  {
    "molecule": "CN(c1ncnc2[nH]ccc12)[C@@H]1CCN(S(=O)(=O)c2cccc([N+](=O)[O-])c2)C1",
    "classification": "Condition met"
  },
  {
    "molecule": "CN(c1ncnc2[nH]ccc12)[C@@H]1CCN(S(=O)(=O)c2ccccc2[N+](=O)[O-])C1",
    "classification": "Condition met"
  },
  {
    "molecule": "CCCS(=O)(=O)N1CC[C@@H](N(C)c2ncnc3[nH]ccc23)C1",
    "classification": "Condition met"
  },
  {
    "molecule": "CC(C)COC(=O)N1CC[C@@H](N(C)c2ncnc3[nH]ccc23)C1",
    "classification": "Condition not met"
  },
  {
    "molecule": "N#CCC(=O)N1C[C@H]2CCCN(c3ncnc4[nH]ccc34)[C@H]2C1",
    "classification": "Condition not met"
  },
  {
    "molecule": "CN(c1ncnc2[nH]ccc12)[C@@H]1CCN(S(=O)(=O)N2CCOCC2)C1",
    "classification": "Condition not met"
  },
  {
    "molecule": "CCS(=O)(=O)N1CC[C@@H](N(C)c2ncnc3[nH]ccc23)C1",
    "classification": "Condition met"
  },
  {
    "molecule": "CN(c1ncnc2[nH]ccc12)[C@@H]1CCN(S(=O)(=O)c2ccc(C#N)cc2)C1",
    "classification": "Condition met"
  },
  {
    "molecule": "CC(C)CC(=O)N1CC[C@@H](N(C)c2ncnc3[nH]ccc23)C1",
    "classification": "Condition met"
  },
  {
    "molecule": "CN(c1ncnc2[nH]ccc12)[C@@H]1CCN(S(=O)(=O)c2ccccc2C#N)C1",
    "classification": "Condition met"
  },
  {
    "molecule": "CN(c1ncnc2[nH]ccc12)[C@@H]1CCN(S(=O)(=O)c2ccccc2F)C1",
    "classification": "Condition met"
  },
  {
    "molecule": "CN(c1ncnc2[nH]ccc12)[C@@H]1CCN(S(=O)(=O)N2CCCCC2)C1",
    "classification": "Condition met"
  },
  {
    "molecule": "CN(c1ncnc2[nH]ccc12)[C@@H]1CCN(S(=O)(=O)c2ccc(C(F)(F)F)cc2)C1",
    "classification": "Condition not met"
  },
  {
    "molecule": "CN(c1ncnc2[nH]ccc12)C1CCN(C(=O)CC#N)CC1",
    "classification": "Condition not met"
  },
  {
    "molecule": "CN(c1ncnc2[nH]ccc12)C1CCN(S(=O)(=O)c2ccccc2)CC1",
    "classification": "Condition met"
  }
]
